Just for reference, the supplement of paper PMC10567573 is where these values come from.

B1: FBXO3 (parent)
chain: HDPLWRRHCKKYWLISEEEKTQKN

variants of: B1; test: protein stability index of a GFP-peptide fusion (GPS, HEK-293T) (PSI 1-6); higher = more stable; settings: c terminus: a fixed tail appended;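 also: lentivirally expressed fusions sorted by FACS into six bins by GFP to DsRed ratio, PSI derived from sequencing read proportions per bin multiplied by bin number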
# binarize protein stability index: threshold 3 inclusive, high side 1, low side 0

HDSLWRRHCKKYWLISEEEKTQKN [P3S]: 1
HDPLWRRHCLKYWLISEEEKTQKN [K10L]: 0
HDPLWRRHCKKYWLISEELKTQKN [E19L]: 0
HDPLWRRHCKKYWLIVEEEKTQKN [S16V]: 0
HDVLWRRHCKKYWLISEEEKTQKN [P3V]: 1
HDPCWRRHCKKYWLISEEEKTQKN [L4C]: 1
HDPLWRRHCKKYWLISEEEKEQKN [T21E]: 1
HDPLWRRHCKKYWLISEEEKTKKN [Q22K]: 0
HDPLWRRHCKKYWVISEEEKTQKN [L14V]: 1
HDPLWRRHCKKYWLISEECKTQKN [E19C]: 0
HDPLWRRHCKKYWLISEEYKTQKN [E19Y]: 0
HDPLWRRHCKKAWLISEEEKTQKN [Y12A]: 1
